# System: Fibroblast
# ASSAY_PROCEDURE: Multiplex assay against human fibroblast
# Format: toxicity, cell-based
# CONDITIONS_USED: 24 h, 10 µM, compound concentration 10 uM, replicate 1
EXPERIMENTAL_READOUT: Population Membrane Permeable-Phenotype (%)
Dear colleague, please return just the value in %, with no unit written.

MOLECULE	UNIT_DESCRIPTOR	MEASURED
COc1ccccc1-c1cc(Nc2cccc(CS(N)(=O)=O)c2)ncn1	%	7
CC(/C=C1\SC(=S)N(CCCC(=O)Nc2ccc(C(=O)O)c(O)c2)C1=O)=C\c1ccccc1	%	44
CC(C)C[C@H](NC(=O)[C@H](Cc1ccccc1)NC(=O)CNC(=O)CNC(=O)[C@@H](N)Cc1ccc(O)cc1)C(=O)O	%	35
Cc1ccc(NC(=O)Nc2cc(C(F)(F)F)ccc2F)cc1Nc1ccc2c(c1)NC(=O)/C2=C\c1ccc[nH]1	%	5
CC[C@H](Nc1ncnc2[nH]cnc12)c1nc2cccc(F)c2c(=O)n1-c1ccccc1	%	7
CCCc1cc(C)[nH]c(=O)c1CNC(=O)c1cc(-c2ccc(N3CCN(C(C)C)CC3)nc2)cc2c1cnn2C(C)C	%	4
Cc1c(Nc2ccc(S(=O)(=O)N3CCN(C)CC3)cc2F)nc2ccc(-c3cnn(C4CC4)c3)cn2c1=O	%	21
Cc1ccc(S(=O)(=O)NC2c3ccccc3Oc3ccccc32)cc1	%	64
CCCCCNC(=N)N/N=C/c1c[nH]c2ccc(OC)cc12.O=C(O)/C=C\C(=O)O [TEGASEROD MALEATE]	%	12
N#Cc1cccc(C(=O)Nc2cc(-c3ccccc3)nn2-c2ccccc2)c1	%	36

QUERY: So what does the record say about Population Membrane Permeable-Phenotype (%) for `CCOc1ccn(-c2ccc(F)cc2)c(=O)c1C(=O)Nc1ccc(Oc2ccnc(N)c2Cl)c(F)c1` ?
RESULT: 0

QUERY: So what does the record say about Population Membrane Permeable-Phenotype (%) for `CC(C)[C@H](CO)Nc1nc(Nc2cccc(Cl)c2)c2ncn(C(C)C)c2n1` ?
RESULT: 16

QUERY: So what does the record say about Population Membrane Permeable-Phenotype (%) for `CCCCN(CC)c1nc(C)nc2c1c(C)cn2-c1c(C)cc(C)cc1C.Cl` ?
RESULT: 14

QUERY: So what does the record say about Population Membrane Permeable-Phenotype (%) for `Cl.NC[C@@H]1O[C@H](C23CC4CC(CC(C4)C2)C3)Cc2c1ccc(O)c2O` ?
RESULT: 5

QUERY: So what does the record say about Population Membrane Permeable-Phenotype (%) for `C=CC(=O)Nc1cc(-n2c(=O)ccc3cnc4ccc(-c5ccc(NS(C)(=O)=O)cc5)cc4c32)ccc1C` ?
RESULT: 35

QUERY: So what does the record say about Population Membrane Permeable-Phenotype (%) for CN1C(=O)[C@@H](NC(=O)c2cc3ccccc3[nH]2)N=C(c2ccccc2)c2ccccc21 [DEVAZEPIDE] ?
RESULT: 34

QUERY: So what does the record say about Population Membrane Permeable-Phenotype (%) for `CC[C@@H]1C(=O)N(C)c2cnc(Nc3ccc(C(=O)NC4CCN(C)CC4)cc3OC)nc2N1C1CCCC1` ?
RESULT: 1
